measured-on: Prostaglandin G/H synthase 1 (Ovis aries)
test-description: Inhibition of ovine COX1 peroxidase activity assessed as reduction of PGG2 to PGH2 by measuring oxidized TMPD level at 10 ug/ml by colorimetric assay relative to control
recorded-metric: inhibition (%)
Kindly answer with a numeric value in %, unit omitted.

**Query** Form field: inhibition recorded for S=c1oc(Cc2ccccc2Nc2c(Cl)cccc2Cl)nn1CN1CCCCC1 with Prostaglandin G/H synthase 1 (Ovis aries) (enter value)
**Result** 30.9

**Query** Notebook: pull reported inhibition for Prostaglandin G/H synthase 1 (Ovis aries), entry S=c1oc(Cc2ccccc2Nc2c(Cl)cccc2Cl)nn1CNc1cccc(Cl)c1
**Result** 25

**Query** GET /values?readout=inhibition&system=Prostaglandin G/H synthase 1 (Ovis aries)&item= S=c1oc(Cc2ccccc2Nc2c(Cl)cccc2Cl)nn1CN1CCNCC1
**Result** 43.2

**Query** What inhibition appears in the records for this molecule with Prostaglandin G/H synthase 1 (Ovis aries)? S=c1oc(Cc2ccccc2Nc2c(Cl)cccc2Cl)nn1CN1CCOCC1
**Result** 34.1

**Query** Give the reported inhibition for CN1CCN(Cn2nc(Cc3ccccc3Nc3c(Cl)cccc3Cl)oc2=S)CC1 (system: Prostaglandin G/H synthase 1 (Ovis aries)).
**Result** 35.2

**Query** Quick check: inhibition on Prostaglandin G/H synthase 1 (Ovis aries), item S=c1oc(Cc2ccccc2Nc2c(Cl)cccc2Cl)nn1CNC1CCCCC1 ?
**Result** 19.6

**Query** Form field: inhibition recorded for CCN1CCN(Cn2nc(Cc3ccccc3Nc3c(Cl)cccc3Cl)oc2=S)CC1 with Prostaglandin G/H synthase 1 (Ovis aries) (enter value)
**Result** 28.4

**Query** Find inhibition (Prostaglandin G/H synthase 1 (Ovis aries)) for the entry S=c1oc(Cc2ccccc2Nc2c(Cl)cccc2Cl)nn1CNc1ccccc1Cl
**Result** 27.8

----------
Record form. Attribute: Activity. Fill in for each entry.
Tested on: Mus musculus
test-description: Analgesic activity in albino mouse assessed as protection against glacial acetic acid-induced writhing at 10 mg/kg, po administered 0.5 hrs followed by glacial acetic acid challenge measured for 15 mins relative to control
Assay type: functional
Numeric only. Scale: %

**Query** Entry S=c1oc(Cc2ccccc2Nc2c(Cl)cccc2Cl)nn1CNc1ccccc1Cl : reported Activity = ?
**Result** 77.6

**Query** Any idea what its Activity is? The compound is S=c1oc(Cc2ccccc2Nc2c(Cl)cccc2Cl)nn1CN1CCOCC1
**Result** 77

**Query** Fill blank: measured Activity of the compound CN1CCN(Cn2nc(Cc3ccccc3Nc3c(Cl)cccc3Cl)oc2=S)CC1 is ____.
**Result** 77.6

**Query** Suppose we examine the compound S=c1oc(Cc2ccccc2Nc2c(Cl)cccc2Cl)nn1CN1CCCCC1 ; what Activity value has been reported?
**Result** 74.1

**Query** Bench note: what Activity did S=c1oc(Cc2ccccc2Nc2c(Cl)cccc2Cl)nn1CNc1cccc(Cl)c1 show?
**Result** 82.2

**Query** Can you share its Activity? I mean this compound: S=c1oc(Cc2ccccc2Nc2c(Cl)cccc2Cl)nn1CN1CCNCC1
**Result** 75.9

**Query** Any idea what Activity was measured for CCN1CCN(Cn2nc(Cc3ccccc3Nc3c(Cl)cccc3Cl)oc2=S)CC1 ?
**Result** 81

**Query** # get_value(readout='Activity', item= S=c1oc(Cc2ccccc2Nc2c(Cl)cccc2Cl)nn1CNC1CCCCC1 )
**Result** 77.6

----------
Tested on: Rattus norvegicus
test-description: Ulcerogenic activity in albino rat stress model assessed as ulcer index at 10 mg/kg, po after 7 hrs
Assay type: toxicity, organism-based
Parameters: dose 10 mg/kg, route oral
setup-conditions: in vivo
Define the label as label 1 when UI is strictly less than 3 and as label 0 in all remaining cases.

**Query** Threshold test, UI < 3: O=C(O)Cc1ccccc1Nc1c(Cl)cccc1Cl [DICLOFENAC]
**Result** label 0

**Query** Is 3 strictly greater than the compound's reported UI? compound: CN1CCN(Cn2nc(Cc3ccccc3Nc3c(Cl)cccc3Cl)oc2=S)CC1
**Result** label 1

**Query** In the record for S=c1oc(Cc2ccccc2Nc2c(Cl)cccc2Cl)nn1CNc1ccccc1Cl , is UI less than 3?
**Result** label 0

**Query** Is UI strictly under 3 for the entry S=c1oc(Cc2ccccc2Nc2c(Cl)cccc2Cl)nn1CNc1cccc(Cl)c1 ?
**Result** label 1

**Query** Consider S=c1oc(Cc2ccccc2Nc2c(Cl)cccc2Cl)nn1CN1CCOCC1 . Does its UI lie strictly below 3?
**Result** label 1

**Query** Is the reported UI for S=c1oc(Cc2ccccc2Nc2c(Cl)cccc2Cl)nn1CNC1CCCCC1 strictly below 3?
**Result** label 0

**Query** # TODO verify UI < 3 strictly for this compound: CC(=O)Oc1ccccc1C(=O)O [ASPIRIN]
**Result** label 0

**Query** Just wondering, is UI of CCN1CCN(Cn2nc(Cc3ccccc3Nc3c(Cl)cccc3Cl)oc2=S)CC1 below 3?
**Result** label 1

**Query** Identify whether the compound CC(C(=O)O)c1ccc(-c2ccccc2)c(F)c1 (centres undefined) [FLURBIPROFEN] records UI below 3.
**Result** label 0

----------
System: Rattus norvegicus
test-description: Acute antiinflammatory activity in albino rat assessed as inhibition of carrageenan-induced paw edema at 10 mg/kg, po administered 1 hr followed by carrageenan challenge measured at 4 hrs by plethysmometric analysis relative to control
Assay type: functional
recorded-metric: inhibition in vivo at 10 mg/kg
Report as: number unit

**Query** Please give the measured inhibition in vivo at 10 mg/kg for this compound: S=c1oc(Cc2ccccc2Nc2c(Cl)cccc2Cl)nn1CN1CCCCC1
**Result** 45.9%

**Query** For the compound S=c1oc(Cc2ccccc2Nc2c(Cl)cccc2Cl)nn1CN1CCNCC1 , what inhibition in vivo at 10 mg/kg is on record?
**Result** 56.5%

**Query** Given the entry CC1CCN(Cn2nc(Cc3ccccc3Nc3c(Cl)cccc3Cl)oc2=S)CC1 , report its measured inhibition in vivo at 10 mg/kg.
**Result** 33.8%

**Query** Look up inhibition in vivo at 10 mg/kg for this compound: S=c1oc(Cc2ccccc2Nc2c(Cl)cccc2Cl)nn1CNC1CCCCC1
**Result** 67.5%

**Query** Fill in: inhibition in vivo at 10 mg/kg of CN1CCN(Cn2nc(Cc3ccccc3Nc3c(Cl)cccc3Cl)oc2=S)CC1 is ___
**Result** 64.5%

**Query** Consider the compound shown here: S=c1oc(Cc2ccccc2Nc2c(Cl)cccc2Cl)nn1CNc1cccc(Cl)c1 What is its recorded inhibition in vivo at 10 mg/kg?
**Result** 74.4%

**Query** Return reported inhibition in vivo at 10 mg/kg; argument: S=c1oc(Cc2ccccc2Nc2c(Cl)cccc2Cl)nn1CNc1ccccc1Cl
**Result** 61.3%

**Query** # query: inhibition in vivo at 10 mg/kg of entry S=c1oc(Cc2ccccc2Nc2c(Cl)cccc2Cl)nn1CN1CCOCC1
**Result** 63.8%

**Query** Consider the compound CN(Cn1nc(Cc2ccccc2Nc2c(Cl)cccc2Cl)oc1=S)c1ccccc1 and give its measured inhibition in vivo at 10 mg/kg.
**Result** 41%

**Query** Return reported inhibition in vivo at 10 mg/kg; argument: CC1CCCCN1Cn1nc(Cc2ccccc2Nc2c(Cl)cccc2Cl)oc1=S (stereo unspecified)
**Result** 36.6%

**Query** Report inhibition in vivo at 10 mg/kg for CCN1CCN(Cn2nc(Cc3ccccc3Nc3c(Cl)cccc3Cl)oc2=S)CC1 please.
**Result** 68.9%

----------
Test system: Mus musculus
test-description: Acute toxicity in albino mouse assessed as effect on neurological profile at 2000 mg/kg, po measured for 3 hrs
Assay type: organism-based
Design: dose 2000 mg/kg, route oral
setup-conditions: in vivo
recorded-metric: Activity

compound: CC1CCCCN1Cn1nc(Cc2ccccc2Nc2c(Cl)cccc2Cl)oc1=S (stereo unspecified)
Activity: Non-toxic
//
compound: S=c1oc(Cc2ccccc2Nc2c(Cl)cccc2Cl)nn1CN1CCCCC1
Activity: Non-toxic
//
compound: CC1CCN(Cn2nc(Cc3ccccc3Nc3c(Cl)cccc3Cl)oc2=S)CC1
Activity: Non-toxic
//
compound: CN1CCN(Cn2nc(Cc3ccccc3Nc3c(Cl)cccc3Cl)oc2=S)CC1
Activity: Non-toxic
//
compound: S=c1oc(Cc2ccccc2Nc2c(Cl)cccc2Cl)nn1CNc1ccccc1Cl
Activity: Non-toxic
//
compound: S=c1oc(Cc2ccccc2Nc2c(Cl)cccc2Cl)nn1CNc1cccc(Cl)c1
Activity: Non-toxic
//
compound: S=c1oc(Cc2ccccc2Nc2c(Cl)cccc2Cl)nn1CN1CCNCC1
Activity: Non-toxic
//
compound: CN(Cn1nc(Cc2ccccc2Nc2c(Cl)cccc2Cl)oc1=S)c1ccccc1
Activity: Non-toxic
//
compound: S=c1oc(Cc2ccccc2Nc2c(Cl)cccc2Cl)nn1CNC1CCCCC1
Activity: Non-toxic
//
compound: CCN1CCN(Cn2nc(Cc3ccccc3Nc3c(Cl)cccc3Cl)oc2=S)CC1
Activity: Non-toxic

Read the next record carefully.
**Query** Please tell me: Activity of S=c1oc(Cc2ccccc2Nc2c(Cl)cccc2Cl)nn1CN1CCOCC1 , system Mus musculus?
**Result** Non-toxic
